tested target: CB1 receptor (Homo sapiens)
Construct: expressed in transfected cells
Sequence (P21554 whole entry): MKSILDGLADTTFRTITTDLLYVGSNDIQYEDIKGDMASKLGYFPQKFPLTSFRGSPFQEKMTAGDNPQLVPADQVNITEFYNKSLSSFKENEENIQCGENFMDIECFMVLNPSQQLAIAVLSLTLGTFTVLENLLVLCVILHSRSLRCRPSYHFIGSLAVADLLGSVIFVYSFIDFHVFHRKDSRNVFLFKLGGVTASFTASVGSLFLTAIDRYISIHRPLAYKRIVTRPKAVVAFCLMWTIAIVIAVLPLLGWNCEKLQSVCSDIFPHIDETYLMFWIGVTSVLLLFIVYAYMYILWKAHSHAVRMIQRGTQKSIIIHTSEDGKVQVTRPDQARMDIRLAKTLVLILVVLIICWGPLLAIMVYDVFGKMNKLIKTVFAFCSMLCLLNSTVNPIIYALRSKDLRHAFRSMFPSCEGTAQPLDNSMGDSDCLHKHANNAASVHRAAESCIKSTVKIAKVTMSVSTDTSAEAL
run description: cell-based
cond: CB1 Receptor Functional Inverse Agonist EC50, forskolin induced β-galactosidase activity, SK-N-MC cells

[
  {
    "compound": "C[C@@H](NC(=O)c1nn(-c2ccccc2Cl)c2c1CCCC/C2=C\\c1ccc(Cl)cc1)C1CCCCC1",
    "tested target": "CB1 receptor (Homo sapiens)",
    "EC50": "10 nM"
  },
  {
    "compound": "COC(=O)[C@@H](Cc1ccc(O)cc1)NC(=O)c1nn(-c2ccc(Cl)cc2Cl)c2c1CCCCC2Cc1cccc(F)c1 (stereo partly drawn)",
    "tested target": "CB1 receptor (Homo sapiens)",
    "EC50": "60 nM"
  },
  {
    "compound": "C[C@H](NC(=O)c1nn(-c2ccc(Cl)cc2Cl)c2c1CCCC/C2=C\\c1ccc(F)cc1)C1CCCCC1",
    "tested target": "CB1 receptor (Homo sapiens)",
    "EC50": "200 nM"
  },
  {
    "compound": "O=C(NCc1ccccn1)c1nn(-c2ccc(Cl)cc2Cl)c2c1CCCC/C2=C\\c1ccc(Cl)cc1",
    "tested target": "CB1 receptor (Homo sapiens)",
    "EC50": "30 nM"
  },
  {
    "compound": "C[C@@H](NC(=O)c1nn(-c2ccc(S(N)(=O)=O)cc2)c2c1CCCC/C2=C\\c1ccc(Cl)cc1)C1CCCCC1",
    "tested target": "CB1 receptor (Homo sapiens)",
    "EC50": "< 3 nM"
  },
  {
    "compound": "COC(=O)[C@@H](Cc1ccc(F)cc1)NC(=O)c1nn(-c2ccc(Cl)cc2Cl)c2c1CCCC[C@H]2Cc1cccc(F)c1",
    "tested target": "CB1 receptor (Homo sapiens)",
    "EC50": "200 nM"
  },
  {
    "compound": "C[C@H](NS(=O)(=O)/C=C/c1nn(C2CCCCC2)c2c1CCCCC2Cc1cccc(F)c1)c1ccccc1 (stereo partly drawn)",
    "tested target": "CB1 receptor (Homo sapiens)",
    "EC50": "70 nM"
  },
  {
    "compound": "C[C@@H](NC(=O)c1nn(-c2ccc(S(N)(=O)=O)cc2)c2c1CCCC/C2=C\\c1ccc(Cl)cc1)c1ccccc1",
    "tested target": "CB1 receptor (Homo sapiens)",
    "EC50": "3 nM"
  },
  {
    "compound": "C[C@@H](NC(=O)c1nn(-c2ccccc2Cl)c2c1CCCC/C2=C\\c1ccc(Cl)cc1)c1ccccc1",
    "tested target": "CB1 receptor (Homo sapiens)",
    "EC50": "9 nM"
  },
  {
    "compound": "COc1ccc(/C=C2\\CCCCc3c(C(=O)NCc4ccccn4)nn(-c4ccc(Cl)cc4Cl)c32)cc1",
    "tested target": "CB1 receptor (Homo sapiens)",
    "EC50": "20 nM"
  },
  {
    "compound": "O=C(NS(=O)(=O)c1ccccc1)c1nn(-c2ccc(Cl)cc2Cl)c2c1CCCC/C2=C\\c1ccc(Cl)cc1",
    "tested target": "CB1 receptor (Homo sapiens)",
    "EC50": "30 nM"
  },
  {
    "compound": "O=C(NCCc1ccccn1)c1nn(-c2ccc(Cl)cc2Cl)c2c1CCCC/C2=C\\c1ccc(Cl)cc1",
    "tested target": "CB1 receptor (Homo sapiens)",
    "EC50": "40 nM"
  },
  {
    "compound": "O=C(NC1CCC1)c1nn(-c2ccc(Cl)cc2Cl)c2c1CCCCC2Cc1cccc(F)c1 (stereo not drawn)",
    "tested target": "CB1 receptor (Homo sapiens)",
    "EC50": "100 nM"
  },
  {
    "compound": "O=C(N[C@@H]1c2ccccc2C[C@@H]1O)c1nn(-c2ccc(Cl)cc2Cl)c2c1CCCCC2Cc1cccc(Cl)c1 (single isomer, unassigned) [Cpd 113]",
    "tested target": "CB1 receptor (Homo sapiens)",
    "EC50": "100 nM"
  },
  {
    "compound": "O=C(NN1CCCCC1)c1nn(-c2ccc(Cl)cc2Cl)c2c1CCCC/C2=C\\c1ccc(Cl)cc1",
    "tested target": "CB1 receptor (Homo sapiens)",
    "EC50": "30 nM"
  },
  {
    "compound": "COc1ccc(/C=C2\\CCCCc3c(C(=O)N[C@H](CO)c4ccccc4)nn(-c4ccc(Cl)cc4Cl)c32)cc1",
    "tested target": "CB1 receptor (Homo sapiens)",
    "EC50": "10 nM"
  },
  {
    "compound": "COc1ccc(/C=C2\\CCCCc3c(C(=O)NC(C)(C)c4ccccc4)nn(-c4ccc(Cl)cc4Cl)c32)cc1",
    "tested target": "CB1 receptor (Homo sapiens)",
    "EC50": "20 nM"
  },
  {
    "compound": "C[C@@H](NC(=O)c1nn(-c2ccc(Cl)cc2Cl)c2c1CCCC/C2=C\\c1ccc(F)cc1)c1ccccc1",
    "tested target": "CB1 receptor (Homo sapiens)",
    "EC50": "20 nM"
  },
  {
    "compound": "CC(NC(=O)c1nn(-c2ccc(Cl)cc2Cl)c2c1CCCC/C2=C\\c1ccc(Cl)cc1)c1ccc(Cl)cc1 (stereo not drawn)",
    "tested target": "CB1 receptor (Homo sapiens)",
    "EC50": "30 nM"
  },
  {
    "compound": "COc1ccc(/C=C2\\CCCCc3c(C(=O)N[C@@H]4CCc5ccccc54)nn(-c4ccc(Cl)cc4Cl)c32)cc1",
    "tested target": "CB1 receptor (Homo sapiens)",
    "EC50": "50 nM"
  },
  {
    "compound": "C[C@H](NC(=O)c1nn(-c2ccc(Cl)cc2Cl)c2c1CCCC/C2=C\\c1ccc(F)cc1)c1ccccc1",
    "tested target": "CB1 receptor (Homo sapiens)",
    "EC50": "60 nM"
  },
  {
    "compound": "COc1ccc(/C=C2\\CCCCc3c(C(=O)NN4CCCCC4)nn(-c4ccc(Cl)cc4Cl)c32)cc1",
    "tested target": "CB1 receptor (Homo sapiens)",
    "EC50": "20 nM"
  },
  {
    "compound": "O=C(c1nn(-c2ccc(Cl)cc2Cl)c2c1CCCC/C2=C\\c1ccc(F)cc1)N1CCCC1c1ccccn1 (stereo not drawn)",
    "tested target": "CB1 receptor (Homo sapiens)",
    "EC50": "10 nM"
  },
  {
    "compound": "O=C(N[C@@H]1c2ccccc2C[C@@H]1O)c1nn(-c2ccc(Cl)cc2Cl)c2c1CCCCC2Cc1cccc(Cl)c1 (single isomer, unassigned) [Cpd 112]",
    "tested target": "CB1 receptor (Homo sapiens)",
    "EC50": "60 nM"
  }
]

* * *

tested target: CB2 receptor (Homo sapiens, UniProt P34972)
Construct: expressed in transfected cells
Sequence (P34972 whole entry): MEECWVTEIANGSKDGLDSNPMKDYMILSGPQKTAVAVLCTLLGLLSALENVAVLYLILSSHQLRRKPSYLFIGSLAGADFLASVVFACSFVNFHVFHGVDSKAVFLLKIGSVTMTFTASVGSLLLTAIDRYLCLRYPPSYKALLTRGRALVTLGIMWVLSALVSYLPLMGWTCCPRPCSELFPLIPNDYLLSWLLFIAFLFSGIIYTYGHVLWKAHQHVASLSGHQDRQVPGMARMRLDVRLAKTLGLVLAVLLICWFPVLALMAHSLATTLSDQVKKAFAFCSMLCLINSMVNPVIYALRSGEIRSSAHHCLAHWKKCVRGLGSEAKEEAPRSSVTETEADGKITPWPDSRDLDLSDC
run description: Binding assay for CB2 agonists or inverse agonists (SK-N-MC membranes, [3H]-CP-55,940)
cond: Cannabinoid CB2 Receptor Binding IC50, calculated by linear regression from percent inhibition at various test concentrations
pIC50: −log10 of the molar value.
Overview of recorded pIC50 for various compounds

[
  {
    "compound": "C[C@@H](NC(=O)c1nn(-c2ccc(Cl)cc2Cl)c2c1CCCC/C2=C\\c1ccc(F)cc1)c1ccccc1",
    "pIC50": 5.64
  },
  {
    "compound": "COC(=O)[C@H](Cc1ccc(F)cc1)NC(=O)c1n[nH]c2c1CCCC/C2=C\\c1ccc(Cl)cc1",
    "pIC50": 8.00
  },
  {
    "compound": "CC12CCC(C1)C(C)(C)[C@H]2NC(=O)c1nn(Cc2ccccc2)c2c1CCCCC2c1ccccc1 (some centres unmarked)",
    "pIC50": 7.52
  },
  {
    "compound": "O=C(N[C@@H](CO)c1ccccc1)c1n[nH]c2c1CCCCC2Cc1cccc(Cl)c1 (stereo in doubt)",
    "pIC50": 7.70
  },
  {
    "compound": "COC(=O)[C@@H](Cc1ccc(F)cc1)NC(=O)c1n[nH]c2c1CCCC/C2=C\\c1ccc(Cl)cc1",
    "pIC50": 9.00
  },
  {
    "compound": "COC(=O)[C@@H](Cc1ccc(F)cc1)NC(=O)c1nn(C)c2c1CCCC/C2=C\\c1cccc(F)c1",
    "pIC50": 8.52
  },
  {
    "compound": "C[C@H](NS(=O)(=O)/C=C/c1n[nH]c2c1CCCC/C2=C\\c1ccc(Cl)cc1)c1ccccc1",
    "pIC50": 7.00
  },
  {
    "compound": "COC(=O)[C@@H](Cc1ccc(O)cc1)NC(=O)c1nn(C2CCCCC2)c2c1CCCCC2Cc1cccc(F)c1 (some centres unmarked)",
    "pIC50": 7.22
  },
  {
    "compound": "Cn1nc(C(=O)N[C@H](CO)Cc2ccc(O)cc2)c2c1/C(=C/c1cccc(F)c1)CCCC2",
    "pIC50": 7.70
  },
  {
    "compound": "O=C(N[C@H](CO)c1ccccc1)c1n[nH]c2c1CCCCC2Cc1cccc(Cl)c1 (single isomer, unassigned) [Cpd 231]",
    "pIC50": 6.70
  },
  {
    "compound": "CC12CCC(C1)C(C)(C)[C@H]2NC(=O)c1nn(-c2ccc(F)cc2F)c2c1CCCCC2Cc1ccc(F)cc1 (some centres unmarked)",
    "pIC50": 6.52
  }
]
